The values you see were collected from paper PMC11480844.

B1: H2-Kb / Ed10 (parent complex)
chain 1: GEQVEQRPPHLSVREGDSAFIICTYTDSATAYFYWYKQEPGAGLQLLMSVFSNVDRKEEQGLTVLLNKKDKRLSLNLTAAHPGDSAVYFCAVRGTGYQNFYFGKGTSLTVIP
chain 2: AQTIHQWPVAEIKAVGSPLSLGCTIKGKSSPNLYWYWQATGGTLQQLFYSITVGQVESVVQLNLSASRPKDDQFILSTEKLLLSHSGFYLCAWSPGYEQYFGPGTRLTVL
chain 3: not shown
chain 4: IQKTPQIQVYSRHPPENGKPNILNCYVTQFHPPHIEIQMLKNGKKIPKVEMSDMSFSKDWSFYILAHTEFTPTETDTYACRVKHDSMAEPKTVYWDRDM
chain 5: SIINFEKL

Variants of: B1
ASSAY: % of reporter cells activated (NFAT-GFP), raw; further: test concentration or dose not given here
VALUE KIND: ratio to parent
Give your answer as a number; write no unit.

{"MUTANT": "chain 5 I2M", "ratio to parent": 0.933}

Request: Quick one: ratio to parent for chain 5 I3D ?
Result: 0.691

Request: Quick one: ratio to parent for chain 5 K7P ?
Result: 0.685

Request: Quick one: ratio to parent for chain 5 E6S ?
Result: 0.0168
